B1: EPB41L3 (parent)
chain: GSKFRYSGRTQAQTRRASALIDRP

variants of: B1; assay: protein stability index of a GFP-peptide fusion (GPS, HEK-293T) (PSI 1-6); higher = more stable; conditions: c terminus: a fixed tail appended;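 also: lentivirally expressed fusions sorted by FACS into six bins by GFP to DsRed ratio, PSI derived from sequencing read proportions per bin multiplied by bin number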
Reported protein stability index by item:
measured-metric: protein stability index

• GSKFRYSGYTQAQTRRASALIDRP [R9Y] = 2.4
• GSKFRSSGRTQAQTRRASALIDRP [Y6S] = 3.85
• GSKFRYSGRRQAQTRRASALIDRP [T10R] = 3.62
• GSKFRNSGRTQAQTRRASALIDRP [Y6N] = 3.67
• GSKFRYSGNTQAQTRRASALIDRP [R9N] = 3.7
• GSKFRYSGRTQAQTRRAQALIDRP [S18Q] = 3.19
• GSKFRYSGQTQAQTRRASALIDRP [R9Q] = 3.32
• GSKFRYSGRTQAQTRRASLLIDRP [A19L] = 3.12
• GSIFRYSGRTQAQTRRASALIDRP [K3I] = 2.67
• GSKFRYSGRTQAQTRNASALIDRP [R16N] = 3.42
• GSKFRYSGRTQAQTRRASALIRRP [D22R] = 3.45
• ESKFRYSGRTQAQTRRASALIDRP [G1E] = 3.62
• GSKFRYSGRTQAQTRRASALIDRA [P24A] = 2.57
• GSKFRYSGRTQAQTRRAYALIDRP [S18Y] = 2.27
• GSKFRYSGRTQAPTRRASALIDRP [Q13P] = 2.69
• VSKFRYSGRTQAQTRRASALIDRP [G1V] = 2.43

FYI, the data here is from the supplement of paper PMC10567573.
